Field: pIC50. Provide a value for each of the molecules that follow.
- Experimental Target: GII protease (Lordsdale virus, UniProt P54634)
- Assay Text: Cell-based FRET protease assay, GII protease
- Parameters: species or system norovirus
Numbers only, as −log10 of the molar value.

Molecule: CC(C)C(NC(=O)c1ccc2ccccc2n1)C(=O)N[C@@H](CC1CCCCC1)C(=O)N[C@H](C=O)C[C@@H]1CCNC1=O (some centres unmarked) [10d]
pIC50: 6.92

# input for lookup
[Q] I'd like to know its pIC50. The molecule in question is "O=C[C@H](C[C@@H]1CCNC1=O)NC(=O)[C@H](CC1CCCCC1)NC(=O)c1ccc2ccccc2n1"
[A] 4.39

----------
- Assay Text: Pharmacokinetic studies in mice
- Type: in vivo
- Test Settings: male, mouse, serum, ip; CD-1 mice, i.p. (20 mg/kg)
Assignment: determine reported Tmax for the given compounds.
Give bare numbers, in min.

Compound: O=C[C@H](C[C@@H]1CCNC1=O)NC(=O)[C@H](CC1CCCCC1)NC(=O)c1ccc2ccccc2n1
Measurement Name: Tmax
Observed Value: 15

[Q] Returns the measured Tmax for the input compound. Input: CC(C)C(NC(=O)c1ccc2ccccc2n1)C(=O)N[C@@H](CC1CCCCC1)C(=O)N[C@H](C=O)C[C@@H]1CCNC1=O (some centres unmarked) [10d]
[A] 15

----------
- Assay Text: Pharmacokinetic studies in mice
- Format: in vivo
- Test Settings: male, mouse, serum, ip; CD-1 mice, i.p. (20 mg/kg)
Measurement Name: Cmax (ng/mL)
Numbers only, in ng/mL.

Compound: CC(C)C(NC(=O)c1ccc2ccccc2n1)C(=O)N[C@@H](CC1CCCCC1)C(=O)N[C@H](C=O)C[C@@H]1CCNC1=O (some centres unmarked) [10d]
Cmax (ng/mL): 12700

Lab note: next compound to report on.
[Q] Sample "O=C[C@H](C[C@@H]1CCNC1=O)NC(=O)[C@H](CC1CCCCC1)NC(=O)c1ccc2ccccc2n1" — what was its Cmax?
[A] 14500

----------
- Assay Text: Cytotoxicity assay (MTS) in RAW 264.7 cells
- Type: cell-based
- Test Settings: mouse
Exercise: state measured CC50 for each of the molecules provided.
One number for each entry, in µM.

Molecule: O=C[C@H](C[C@@H]1CCNC1=O)NC(=O)[C@H](CC1CCCCC1)NC(=O)c1ccc2ccccc2n1 [compound 4]
Scale Unit: µM
CC50: 25.3

Here is the next item to consider.
[Q] Quick one: CC50 of CC(C)C(NC(=O)c1ccc2ccccc2n1)C(=O)N[C@@H](CC1CCCCC1)C(=O)N[C@H](C=O)C[C@@H]1CCNC1=O (some centres unmarked) [10d] ?
[A] 48

----------
- Assay Text: Pharmacokinetic studies in mice
- Assay type: in vivo
- Test Settings: male, mouse, serum, sc; CD-1 mice, s.c. (5 mg/kg)
Task for the reader: assign each of the following compounds its reported bioavailability.
Answers are plain numbers, in %.

Compound: CC(C)C(NC(=O)c1ccc2ccccc2n1)C(=O)N[C@@H](CC1CCCCC1)C(=O)N[C@H](C=O)C[C@@H]1CCNC1=O (some centres unmarked) [10d]
Scale Unit: %
bioavailability: 102

Let us examine a further case.
[Q] Which bioavailability is reported for this compound? "O=C[C@H](C[C@@H]1CCNC1=O)NC(=O)[C@H](CC1CCCCC1)NC(=O)c1ccc2ccccc2n1"
[A] 78.6
